Measured values drawn from ChEMBL document CHEMBL3351456 for this set.

Experiment: Cytotoxicity against African green monkey Vero cells
Type: cell-based
Details: chlorocebus sabaeus
measured_endpoint: CC50 (µM)
Write it as a number; the unit µM goes unstated.

Nc1ncc(F)c2c1ncn2[C@@H]1C[C@H](CO)[C@@H](O)[C@H]1O 159

Looking for the measured CC50 of Nc1ncc(F)c2c1ncn2[C@@H]1C[C@H](CCO)[C@@H](O)[C@H]1O , can you help? 128

====

Tested on: Rift Valley fever virus
Test: Antiviral activity against Rift Valley fever virus infected in African green monkey Vero 76 cells
Type: functional, organism-based
In this section, each of the molecules is paired with its reported pIC50.
Please express pIC50 as -log10 of the molar concentration.

Nc1ncc(F)c2c1ncn2[C@@H]1C[C@H](CCO)[C@@H](O)[C@H]1O 4.47

May I ask what pIC50 has been recorded for Nc1ncc(F)c2c1ncn2[C@@H]1C[C@H](CO)[C@@H](O)[C@H]1O ? 4.25
